Property: OD450; scope: individual binders
Molecular target: T1, monkey TIM-3 protein with hFc tag (cTIM-3-hFc protein) (monkey; human)
T1 construct: Made in HEK293 cells; also called monkey TIM-3 extracellular domain protein; not shown: human IgG Fc fragment (hFc) of the pCpC vector
T1 chain: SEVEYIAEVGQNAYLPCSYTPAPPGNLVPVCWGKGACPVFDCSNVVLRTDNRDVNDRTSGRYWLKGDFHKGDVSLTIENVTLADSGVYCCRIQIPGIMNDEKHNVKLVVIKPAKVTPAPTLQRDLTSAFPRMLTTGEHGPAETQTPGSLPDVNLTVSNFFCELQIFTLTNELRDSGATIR
Test: ELISA, coated cTIM-3-hFc; antibody 0.0667 nM
Write the value as a bare number.

Example entries and their recorded answers appear below.
# BINDER, OD450
records = [
    ("34B6D8 (TIM-3 antibody purified from hybridoma, chimeric antibody of Example 2) (antibody, V domains shown, From hybridoma of Harbour H2L2 transgenic mice: human variable regions, rat constant regions) VH: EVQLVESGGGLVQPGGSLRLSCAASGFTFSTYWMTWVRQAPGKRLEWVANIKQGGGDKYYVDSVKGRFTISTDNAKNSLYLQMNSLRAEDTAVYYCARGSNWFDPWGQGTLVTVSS VL: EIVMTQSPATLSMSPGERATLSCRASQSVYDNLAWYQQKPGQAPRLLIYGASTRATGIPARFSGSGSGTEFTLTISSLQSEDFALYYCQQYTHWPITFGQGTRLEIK", 1.92),
    ("134H3G6 (TIM-3 antibody purified from hybridoma, chimeric antibody of Example 2) (antibody, V domains shown, From hybridoma of Harbour H2L2 transgenic mice: human variable regions, rat constant regions) VH: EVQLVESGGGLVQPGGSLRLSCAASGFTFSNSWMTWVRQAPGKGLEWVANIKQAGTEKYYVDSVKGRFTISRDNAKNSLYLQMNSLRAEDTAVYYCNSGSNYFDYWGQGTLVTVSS VL: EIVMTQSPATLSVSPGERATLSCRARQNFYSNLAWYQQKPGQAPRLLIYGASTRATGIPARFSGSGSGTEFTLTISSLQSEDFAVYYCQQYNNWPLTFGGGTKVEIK", 0.64),
    ("57F4E5 (TIM-3 antibody purified from hybridoma, chimeric antibody of Example 2) (antibody, V domains shown, From hybridoma of Harbour H2L2 transgenic mice: human variable regions, rat constant regions) VH: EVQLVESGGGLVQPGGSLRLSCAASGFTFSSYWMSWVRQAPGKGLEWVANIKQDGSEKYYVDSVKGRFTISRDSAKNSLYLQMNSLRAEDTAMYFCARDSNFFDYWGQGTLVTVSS VL: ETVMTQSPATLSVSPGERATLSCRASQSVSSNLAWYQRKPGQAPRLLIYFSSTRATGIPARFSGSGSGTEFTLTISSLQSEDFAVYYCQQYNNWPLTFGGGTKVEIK", 2.68),
]

Now consider a different binder.
Query: Request the reported OD450 associated with 7A4F10 (TIM-3 antibody purified from hybridoma, chimeric antibody of Example 2) (antibody, V domains shown, From hybridoma of Harbour H2L2 transgenic mice: human variable regions, rat constant regions) VH: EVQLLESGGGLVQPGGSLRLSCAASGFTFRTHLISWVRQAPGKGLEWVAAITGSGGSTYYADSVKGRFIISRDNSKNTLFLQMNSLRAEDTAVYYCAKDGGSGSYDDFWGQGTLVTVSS VL: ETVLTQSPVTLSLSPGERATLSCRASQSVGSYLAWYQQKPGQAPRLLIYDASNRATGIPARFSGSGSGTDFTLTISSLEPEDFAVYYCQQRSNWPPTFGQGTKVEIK
Result: 0.7
